The origin of these recorded values is the NIST ThermoML archive (doi:10.1016/j.jct.2014.12.027).

# EXPERIMENTAL PROTOCOL: activity coefficient (dimensionless); of the first substance listed, at infinite dilution; xn = mol fraction of the nth substance listed
# MEASUREMENT SETUP: 328.15 K; 101 kPa; Liquid; Chromatography; x1 = 0
Records here are stratified by activity coefficient; strata: bottom end (below 2), midrange (2 to below 20), top end (20 or more)

| COMPOUND | GROUP |
| --- | --- |
| CCCCCCCC [octane] + CCCC[n+]1ccc(C)cc1.N#CC(=C=[N-])C#N | top end |
| CCc1ccccc1 [ethylbenzene] + CCCC[n+]1ccc(C)cc1.N#CC(=C=[N-])C#N | bottom end |
| CC(C)CO [2-methyl-1-propanol] + CCCC[n+]1ccc(C)cc1.N#CC(=C=[N-])C#N | bottom end |
| C1CCCCC1 [cyclohexane] + CCCC[n+]1ccc(C)cc1.N#CC(=C=[N-])C#N | midrange |
| CCCCCCCCC [nonane] + CCCC[n+]1ccc(C)cc1.N#CC(=C=[N-])C#N | top end |
| Cc1ccc(C)cc1 [1,4-dimethylbenzene] + CCCC[n+]1ccc(C)cc1.N#CC(=C=[N-])C#N | bottom end |
| C1CCCCCC1 [cycloheptane] + CCCC[n+]1ccc(C)cc1.N#CC(=C=[N-])C#N | midrange |
| CC(C)=O [acetone] + CCCC[n+]1ccc(C)cc1.N#CC(=C=[N-])C#N | bottom end |

###

# EXPERIMENTAL PROTOCOL: activity coefficient (dimensionless); of the first substance listed, at infinite dilution; xn = mol fraction of the nth substance listed
# MEASUREMENT SETUP: 348.15 K; 101 kPa; Liquid; Chromatography; x1 = 0
Consider the following molecules and their measured activity coefficient readings.

| MOLECULE | activity coefficient |
| --- | --- |
| CC(C)CO [2-methyl-1-propanol] + CCCC[n+]1ccc(C)cc1.N#CC(=C=[N-])C#N | 1.11 |
| CCCCCCC [heptane] + CCCC[n+]1ccc(C)cc1.N#CC(=C=[N-])C#N | 27.6 |
| CC1CCCCC1 [methylcyclohexane] + CCCC[n+]1ccc(C)cc1.N#CC(=C=[N-])C#N | 13.4 |
| CC#N [acetonitrile] + CCCC[n+]1ccc(C)cc1.N#CC(=C=[N-])C#N | 0.599 |
| CCCCCC [hexane] + CCCC[n+]1ccc(C)cc1.N#CC(=C=[N-])C#N | 20.8 |
| CCCC(C)=O [pentan-2-one] + CCCC[n+]1ccc(C)cc1.N#CC(=C=[N-])C#N | 1.05 |
| C1CCCCC1 [cyclohexane] + CCCC[n+]1ccc(C)cc1.N#CC(=C=[N-])C#N | 9.57 |
| C#CCCCC [1-hexyne] + CCCC[n+]1ccc(C)cc1.N#CC(=C=[N-])C#N | 3.17 |
| CCC(=O)CC [pentan-3-one] + CCCC[n+]1ccc(C)cc1.N#CC(=C=[N-])C#N | 1.05 |
| O [water] + CCCC[n+]1ccc(C)cc1.N#CC(=C=[N-])C#N | 0.859 |
| CC(C)O [propan-2-ol] + CCCC[n+]1ccc(C)cc1.N#CC(=C=[N-])C#N | 1 |
| CCCCO [butan-1-ol] + CCCC[n+]1ccc(C)cc1.N#CC(=C=[N-])C#N | 1.13 |
| CCc1ccccc1 [ethylbenzene] + CCCC[n+]1ccc(C)cc1.N#CC(=C=[N-])C#N | 1.93 |
| CCC[N+](=O)[O-] [1-nitropropane] + CCCC[n+]1ccc(C)cc1.N#CC(=C=[N-])C#N | 0.769 |
| C=CCCCC [hex-1-ene] + CCCC[n+]1ccc(C)cc1.N#CC(=C=[N-])C#N | 9.72 |
| Cc1cccc(C)c1 [1,3-dimethylbenzene] + CCCC[n+]1ccc(C)cc1.N#CC(=C=[N-])C#N | 1.82 |
| c1ccncc1 [pyridine] + CCCC[n+]1ccc(C)cc1.N#CC(=C=[N-])C#N | 0.528 |

###

# EXPERIMENTAL PROTOCOL: activity coefficient (dimensionless); of the first substance listed, at infinite dilution; xn = mol fraction of the nth substance listed
# MEASUREMENT SETUP: 368.15 K; 101 kPa; Liquid; Chromatography; x1 = 0
One threshold, 0.9, splits the recorded activity coefficient values: lower ones are T, equal or higher ones are F.

| COMPOUND | GROUP |
| --- | --- |
| CC(C)=O [acetone] + CCCC[n+]1ccc(C)cc1.N#CC(=C=[N-])C#N | T |
| Cc1ccc(C)cc1 [1,4-dimethylbenzene] + CCCC[n+]1ccc(C)cc1.N#CC(=C=[N-])C#N | F |
| C#CCCCC [1-hexyne] + CCCC[n+]1ccc(C)cc1.N#CC(=C=[N-])C#N | F |
| CCCCCCCCCC [decane] + CCCC[n+]1ccc(C)cc1.N#CC(=C=[N-])C#N | F |

###

# EXPERIMENTAL PROTOCOL: activity coefficient (dimensionless); of the first substance listed, at infinite dilution; xn = mol fraction of the nth substance listed
# MEASUREMENT SETUP: 328.15 K; 101 kPa; Liquid; Chromatography; x1 = 0
Consider the following molecules and their measured activity coefficient readings.
MEASUREMENT NAME: activity coefficient

| MOLECULE | EXPERIMENTAL RESULT |
| --- | --- |
| Cc1ccccc1C [1,2-dimethylbenzene] + CCCC[n+]1ccc(C)cc1.N#CC(=C=[N-])C#N | 1.45 |
| CC1CCCCC1 [methylcyclohexane] + CCCC[n+]1ccc(C)cc1.N#CC(=C=[N-])C#N | 14.8 |
| CCCO [propan-1-ol] + CCCC[n+]1ccc(C)cc1.N#CC(=C=[N-])C#N | 1.01 |
| CCCCCCC [heptane] + CCCC[n+]1ccc(C)cc1.N#CC(=C=[N-])C#N | 31.3 |
| c1ccsc1 [thiophene] + CCCC[n+]1ccc(C)cc1.N#CC(=C=[N-])C#N | 0.658 |

###

# EXPERIMENTAL PROTOCOL: activity coefficient (dimensionless); of the first substance listed, at infinite dilution; xn = mol fraction of the nth substance listed
# MEASUREMENT SETUP: 338.15 K; 101 kPa; Liquid; Chromatography; x1 = 0
Consider the following compounds and their measured activity coefficient readings.

| COMPOUND | activity coefficient |
| --- | --- |
| CCC[N+](=O)[O-] [1-nitropropane] + CCCC[n+]1ccc(C)cc1.N#CC(=C=[N-])C#N | 0.756 |
| C1COCCO1 [1,4-dioxane] + CCCC[n+]1ccc(C)cc1.N#CC(=C=[N-])C#N | 0.624 |
| Cc1ccccc1C [1,2-dimethylbenzene] + CCCC[n+]1ccc(C)cc1.N#CC(=C=[N-])C#N | 1.49 |
| CO [methanol] + CCCC[n+]1ccc(C)cc1.N#CC(=C=[N-])C#N | 0.625 |
| CCC(=O)CC [pentan-3-one] + CCCC[n+]1ccc(C)cc1.N#CC(=C=[N-])C#N | 1.01 |
| CCCCCCCCCC [decane] + CCCC[n+]1ccc(C)cc1.N#CC(=C=[N-])C#N | 76.5 |
| c1ccccc1 [benzene] + CCCC[n+]1ccc(C)cc1.N#CC(=C=[N-])C#N | 0.937 |
| C=CCCCC [hex-1-ene] + CCCC[n+]1ccc(C)cc1.N#CC(=C=[N-])C#N | 10.2 |

###

# EXPERIMENTAL PROTOCOL: activity coefficient (dimensionless); of the first substance listed, at infinite dilution; xn = mol fraction of the nth substance listed
# MEASUREMENT SETUP: 328.15 K; 101 kPa; Liquid; Chromatography; x1 = 0
So basically: activity coefficient at 1 or higher? That is Yes. Lower than 1? That is No.

| MOLECULE | GROUP |
| --- | --- |
| C=CCCCC [hex-1-ene] + CCCC[n+]1ccc(C)cc1.N#CC(=C=[N-])C#N | Yes |
| CCCCO [butan-1-ol] + CCCC[n+]1ccc(C)cc1.N#CC(=C=[N-])C#N | Yes |
| C#CCCCCC [1-heptyne] + CCCC[n+]1ccc(C)cc1.N#CC(=C=[N-])C#N | Yes |
| C1COCCO1 [1,4-dioxane] + CCCC[n+]1ccc(C)cc1.N#CC(=C=[N-])C#N | No |
| Cc1ccccc1 [toluene] + CCCC[n+]1ccc(C)cc1.N#CC(=C=[N-])C#N | Yes |
| O [water] + CCCC[n+]1ccc(C)cc1.N#CC(=C=[N-])C#N | No |

###

# EXPERIMENTAL PROTOCOL: activity coefficient (dimensionless); of the first substance listed, at infinite dilution; xn = mol fraction of the nth substance listed
# MEASUREMENT SETUP: 328.15 K; 101 kPa; Liquid; Chromatography; x1 = 0
MEASUREMENT NAME: activity coefficient

| COMPOUND | EXPERIMENTAL RESULT |
| --- | --- |
| C1CCOC1 [tetrahydrofuran] + CCCC[n+]1ccc(C)cc1.N#CC(=C=[N-])C#N | 0.807 |
| CO [methanol] + CCCC[n+]1ccc(C)cc1.N#CC(=C=[N-])C#N | 0.644 |
| CCC[N+](=O)[O-] [1-nitropropane] + CCCC[n+]1ccc(C)cc1.N#CC(=C=[N-])C#N | 0.748 |
| c1ccncc1 [pyridine] + CCCC[n+]1ccc(C)cc1.N#CC(=C=[N-])C#N | 0.498 |
| CCCC(C)=O [pentan-2-one] + CCCC[n+]1ccc(C)cc1.N#CC(=C=[N-])C#N | 0.986 |
| CCCCCCCCCC [decane] + CCCC[n+]1ccc(C)cc1.N#CC(=C=[N-])C#N | 83 |
| CCO [ethanol] + CCCC[n+]1ccc(C)cc1.N#CC(=C=[N-])C#N | 0.876 |
| CCOC(C)=O [ethyl acetate] + CCCC[n+]1ccc(C)cc1.N#CC(=C=[N-])C#N | 1.33 |
| c1ccccc1 [benzene] + CCCC[n+]1ccc(C)cc1.N#CC(=C=[N-])C#N | 0.916 |
